Cited source for all entries: ChEMBL document CHEMBL6121064

Molecular target: RAF proto-oncogene serine/threonine-protein kinase (Homo sapiens)
Sequence (P04049 whole entry): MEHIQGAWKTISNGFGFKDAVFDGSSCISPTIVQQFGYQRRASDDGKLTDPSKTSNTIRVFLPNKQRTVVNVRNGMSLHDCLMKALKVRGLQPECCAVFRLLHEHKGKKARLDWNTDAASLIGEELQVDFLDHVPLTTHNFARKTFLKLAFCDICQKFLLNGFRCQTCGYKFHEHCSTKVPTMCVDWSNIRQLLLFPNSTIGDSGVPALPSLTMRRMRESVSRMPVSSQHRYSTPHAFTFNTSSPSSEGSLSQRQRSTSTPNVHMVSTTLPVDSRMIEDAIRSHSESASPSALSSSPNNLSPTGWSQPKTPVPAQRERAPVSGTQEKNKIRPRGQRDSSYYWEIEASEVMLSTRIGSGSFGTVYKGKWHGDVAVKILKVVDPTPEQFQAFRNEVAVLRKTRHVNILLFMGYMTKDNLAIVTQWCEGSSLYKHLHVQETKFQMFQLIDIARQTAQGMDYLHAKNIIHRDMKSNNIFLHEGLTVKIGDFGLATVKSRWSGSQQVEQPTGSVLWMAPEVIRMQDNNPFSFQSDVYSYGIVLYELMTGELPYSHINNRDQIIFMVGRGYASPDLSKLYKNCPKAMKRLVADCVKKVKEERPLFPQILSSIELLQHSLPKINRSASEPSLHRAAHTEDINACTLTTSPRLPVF
pIC50: −log10 of the molar value.
measure: pIC50

I: CN(C)CCSSCCC(=O)N1CCC(O)(c2cccc(C(F)(F)F)c2)CC1
II: CN(C)CCSSCCNC(=O)C1CCCN(C(=O)c2ccc(Oc3ccccc3)cc2)C1 (configuration not stated)
Query string: Of the two listed items, which has the higher pIC50? First: I Second: II Pick one and reply with its label.
Result string: I

###

Target: 14-3-3 protein beta/alpha (Homo sapiens, UniProt P31946)
Sequence (P31946 whole entry): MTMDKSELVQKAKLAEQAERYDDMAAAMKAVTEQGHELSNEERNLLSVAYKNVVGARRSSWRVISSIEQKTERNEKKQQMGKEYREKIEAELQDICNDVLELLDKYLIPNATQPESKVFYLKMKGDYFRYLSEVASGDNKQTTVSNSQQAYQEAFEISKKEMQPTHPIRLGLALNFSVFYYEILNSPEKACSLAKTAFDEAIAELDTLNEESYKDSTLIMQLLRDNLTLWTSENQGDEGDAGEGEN
measure: IC50 (µM)
Express it in µM; write the number only.

Query string: Given the entry "O=Cc1ccc(-n2ccnc2-c2ccc(F)cc2F)cc1Br" , report its measured IC50.
Result string: 250

###

Target: Estrogen receptor (Homo sapiens, UniProt P03372)
Sequence (P03372 whole entry): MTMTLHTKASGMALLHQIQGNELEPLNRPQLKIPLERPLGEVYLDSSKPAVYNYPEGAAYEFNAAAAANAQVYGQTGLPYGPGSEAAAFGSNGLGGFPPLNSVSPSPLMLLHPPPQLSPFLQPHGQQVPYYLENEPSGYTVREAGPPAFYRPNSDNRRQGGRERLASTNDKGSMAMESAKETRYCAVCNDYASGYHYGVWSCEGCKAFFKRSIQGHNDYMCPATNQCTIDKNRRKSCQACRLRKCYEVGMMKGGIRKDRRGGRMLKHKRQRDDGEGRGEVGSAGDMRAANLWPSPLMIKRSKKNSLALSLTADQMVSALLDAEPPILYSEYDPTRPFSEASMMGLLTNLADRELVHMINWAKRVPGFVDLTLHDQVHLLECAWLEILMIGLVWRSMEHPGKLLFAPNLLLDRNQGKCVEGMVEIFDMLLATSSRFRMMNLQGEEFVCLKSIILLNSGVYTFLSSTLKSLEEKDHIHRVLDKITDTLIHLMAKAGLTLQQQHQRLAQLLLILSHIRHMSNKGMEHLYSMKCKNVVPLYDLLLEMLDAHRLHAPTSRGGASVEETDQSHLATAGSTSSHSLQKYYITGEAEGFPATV
measure: IC50 (µM)

1. O=C(C1=C(O)C(=O)N(c2ccc(O)c(C(=O)O)c2)C1c1ccc([N+](=O)[O-])cc1)c1ccccc1 (centres undefined)    80
2. NCCCNCCS    2.8

1: CC(C)CC(NC(=O)[C@H](O)[C@H](N)Cc1ccccc1)C(=O)O (some centres undefined)
2: CN(C)CCSSCCNC(=O)C1CCN(C(=O)C(C)(C)Oc2ccc(Cl)cc2)CC1
Query string: Of 1 versus 2 , which is the one with smaller reported IC50? Pick one and reply with its label.
Result string: 1
(1: 1.8 µM, 2: 19 µM)

###

Tested on: HL-60
Test: cells
Settings: Homo sapiens, HL-60, 72 h
measure: pIC50
Value format note: pIC50 is -log10 of concentration (mol/L); just state the number.

Query string: Given the entry COC[C@H]1CC[C@@H]2/C1=C\[C@@]1(C)CCC(C(C)C)=C1C(O[C@@H]1O[C@@H](CNCc3ccccc3)[C@H](O)[C@@H](O)[C@@H]1O)[C@H](O)[C@@H]2C (stereo partly specified) , report its measured pIC50.
Result string: 6.60
